Tested on: MIAPaCa2GR cells
measurement-notes: MTT cytotoxicity of Gemcitabine, Gemcitabine-resistant MIAPaCa2GR
Type: cell-based
condition-details: Homo sapiens
recorded-endpoint: IC50 (nM)
Give bare numbers, in nM.

Q. Determine reported IC50 for "Nc1ccn([C@@H]2O[C@H](CO)[C@@H](O)C2(F)F)c(=O)n1" ; test system: MIAPaCa2GR cells.
A. 8620

Source of measurements: patent US12472227B2
